testedOn: Glucagon-like peptide 1 receptor (Homo sapiens)
Sequence (P43220 whole entry): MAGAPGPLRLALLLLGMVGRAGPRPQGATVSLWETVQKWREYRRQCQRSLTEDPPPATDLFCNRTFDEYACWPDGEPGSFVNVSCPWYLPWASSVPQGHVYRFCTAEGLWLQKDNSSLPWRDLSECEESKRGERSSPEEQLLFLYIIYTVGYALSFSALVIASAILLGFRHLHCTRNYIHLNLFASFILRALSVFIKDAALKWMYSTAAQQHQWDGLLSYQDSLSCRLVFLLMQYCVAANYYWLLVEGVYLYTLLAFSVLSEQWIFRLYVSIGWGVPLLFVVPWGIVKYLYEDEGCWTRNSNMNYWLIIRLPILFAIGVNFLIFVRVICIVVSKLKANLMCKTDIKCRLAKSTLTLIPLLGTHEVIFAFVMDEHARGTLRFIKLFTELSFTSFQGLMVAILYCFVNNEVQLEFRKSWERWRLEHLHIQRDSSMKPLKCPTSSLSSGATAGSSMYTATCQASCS
assayDetails: Agonist activity at human GLP-1R expressed in HEK293 cells assessed as stimulation of cAMP accumulation incubated for 20 mins
Type: functional, cell-based
[ ]: non-standard residue; d: D form. sY = N[C@@H](Cc1ccc(OS(=O)(=O)O)cc1)C(=O)O; αMeH = C[C@](N)(Cc1c[nH]cn1)C(=O)O; AEEA = NCCOCCOCC(=O)O; Aib = CC(C)(N)C(=O)O
valueKind: EC50 (nM)
API: value field is a number in nM; no unit string.

{"substance": "H-H[Aib]EGTYTNDVTEYLEEEAACEFIEWLCKGKPSSGAPPSKKKKKK-NH2 (cysteines drawn unpaired)", "EC50 / nM": 0.23}
{"substance": "H-HGEGTYTNDVTEYLEEEAAKEFIEWLIKGK-NH2", "EC50 / nM": 0.048}
{"substance": "H-H[Aib]EGTYTNDVCEYLEEECAKEFIEWLIKGKPSSGAPPSKKKKKK-NH2 (cysteines drawn unpaired)", "EC50 / nM": 0.13}
{"substance": "H-HGEGTYTNDVTEYLEEEAAKEFIEWLIKGKPSSGAPPPS-NH2", "EC50 / nM": 0.034}
{"substance": "H-H[Aib]EGTYTNDVTEYLEEEACKEFIEWCIKGKPSSGAPPSKKKKKK-NH2 (cysteines drawn unpaired)", "EC50 / nM": 0.15}
{"substance": "H-[αMeH]AEGTYTNDVTCYLEEEACKEFIEWLIKGKPSSGAPPSKKKKKK-NH2 (cysteines drawn unpaired)", "EC50 / nM": 0.11}

Data request, read-out EC50, for H-H[Aib]EGTYTNDVTEYLEEEAAKCFIEWLICGKPSSGAPPPS[AEEA][AEEA][sY]GWMDF-NH2 (cysteines drawn unpaired)
0.059

May I ask what EC50 has been recorded for H-H[Aib]EGTYTNDVTEYLECEAAKEFCEWLIKGKPSSGAPPSKKKKKK-NH2 (cysteines drawn unpaired) ?
0.12
